Molecular target: MHV E protein (Murine hepatitis virus strain A59, UniProt P0C2R0)
Sequence (P0C2R0 1-83): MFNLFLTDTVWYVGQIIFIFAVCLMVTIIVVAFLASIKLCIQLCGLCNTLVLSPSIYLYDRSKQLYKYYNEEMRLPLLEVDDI
Experiment: planar lipid bilayer current recording, dose titration
MEASURED_ATTRIBUTE: pEC50
Scale: negative log10 of molar concentration, which is what pEC50 denotes.

Could you share which pEC50 value was measured for N=C(N)NC(=O)c1nc(Cl)c(N2CCCCCC2)nc1N [HMA, Hexamethylene amiloride] ?
4.99
